Ref: ChEMBL document CHEMBL1201862

Test system: OVCAR-4
test: NCI tumour cell line growth inhibition, 48 h
Active and inactive are the calls of the source. Rule as the data show it: active = GI50 up to about 1.1 µM and inactive = higher.
readout: GI50

compound | GI50
CN1CC[C@@]2(c3cccc(O)c3)CC(=O)/C(=C/c3ccc(Cl)c(Cl)c3)[C@H]1C2 | 4.59 µM (inactive)
O=C1/C(=C/c2ccc3c(c2)OCO3)SC2C=Nc3ccccc3N12 (stereo not given) | 63.4 µM (inactive)
Cc1cc2c(cc1O)[nH]c1cc3c(cc12)C=CC(C)(C)O3 | 10.5 µM (inactive)
COC(=O)C1=C(C)N2CCOC2(C)C(C(=O)OC)C1c1ccc[nH]1 (stereo not given) | > 100 µM (inactive)
CN(C)c1nc(N(C)C)nc(N(C)C)n1 | > 143 µM (inactive)

Bench note: what GI50 did COc1cc2c(cc1OC)[C@H]1C(=O)c3cc4c(cc3[C@H]1N(C)C2=O)OCO4 show?
> 100 µM (inactive)

Now the compound O=C1C=Cc2c1csc2Br
70.8 µM (inactive)

Now the compound CCc1ccc2c(c1)CC1(C2)Cc2cc3c(cc2C1)C(=O)CC3 (stereo not given)
15 µM (inactive)

Now the compound O=c1[nH]c2ccccc2c2nc3ccccc3n12
2 µM (inactive)

Now the compound C=C1C(=O)O[C@H]2[C@H]1[C@@H](OC(=O)C=C(C)C)CC1=C[C@@H](C[C@@]3(C)O[C@@H]23)OC1=O
6.32 µM (inactive)

====

# GI50 annotations
Tested on: OVCAR-4
test: NCI tumour cell line growth inhibition, 48 h
The source made the active and inactive calls. Cut-off read from the data, not from the text of the source: active = GI50 up to about 1.1 µM and inactive = higher.

Record CN(C)CCNC(=O)c1cccc2c1Oc1c(cccc1[N+](=O)[O-])O2 : what is its GI50 with OVCAR-4?
5.04 µM (inactive)

Now the molecule COC1(C)CCC(OS(C)(=O)=O)CO1 (centres undefined)
> 100 µM (inactive)

Now the molecule CCn1c2ccccc2c2cc(NC(=O)c3c(C)nc(O)nc3NCCNCCO)ccc21
> 100 µM (inactive)

====

# GI50 annotations
Test system: OVCAR-4
test: NCI tumour cell line growth inhibition, 48 h
Calls of active or inactive are those of the source. Cut-off read from the data, not from the text of the source: active = GI50 up to about 1.1 µM and inactive = higher.

compound | GI50
NC(CC1=CCC=CC1)C(=O)O (centres undefined) | > 100 µM (inactive)

Bench note: what GI50 did CCc1cccc(C(C)(C)C)c1NC(=S)N/C=C(/C#N)C(N)=O show?
> 100 µM (inactive)

Now the compound NNC(=O)CCc1ccc2ccc3ccccc3c2c1
74.6 µM (inactive)

Now the compound Cc1cc2c(s1)C(=O)c1sccc1C2=O
0.561 µM (active)

Now the compound CC(C)(C)C1CC[C@H]2c3c([nH]c4ccccc34)[C@H]3C(=O)N(c4ccc(F)cc4)C(=O)[C@H]3[C@H]2C1 (some centres undefined)
11.2 µM (inactive)

Now the compound C#Cc1cccc(N2C(=O)CC(=P(c3ccccc3)(c3ccccc3)c3ccccc3)C2=O)c1
69.2 µM (inactive)

Now the compound CN(C)CCNC(=O)c1cccc2c1nc(-c1ccccn1)c1ccccc12
17.3 µM (inactive)

Now the compound N#Cc1nc(NC(=O)c2ccccc2)sc1N
> 6.07 µM (inactive)

Now the compound COc1ccc(C[C@@H](C(=O)O[C@H](C)[C@H](NC(=O)[C@@H](CC(C)C)N(C)C(=O)C2CCCN2C(=O)[C@H](C)O)C(=O)N2CCCCNC(=O)[C@@H](C)C(=O)[C@H](C(C)C)OC(=O)C[C@H](O)[C@H]2CC(C)C)N(C)C(C)=O)cc1 (some centres undefined)
7.83 µM (inactive)

====

# GI50 annotations
System: IGROV-1
test: NCI tumour cell line growth inhibition, 48 h
Calls of active or inactive are those of the source. Cut-off read from the data, not from the text of the source: active = GI50 up to about 1.1 µM and inactive = higher.

Worked set:
compound | endpointResult
COc1cccc(N(CN2C(=O)CCC2C(=O)O)C(C)=O)c1 (centres undefined) | > 100 µM (inactive)
CCOC(=O)/C(C#N)=C/c1ccc(SCc2ccco2)c([N+](=O)[O-])c1 | > 100 µM (inactive)
FC(F)(F)c1ccc(C2ON=C(c3ccccc3)N2C23CC4CC(CC(C4)C2)C3)cc1 (centres undefined) | > 10 µM (inactive)
COC(=O)c1c(C)oc2ccc(OC(C)=O)cc12 | > 100 µM (inactive)
CC1OC(OC2C(O[C@H]3CC[C@@]4(C)C(=CC[C@H]5[C@@H]6C[C@@H]7O[C@]8(CC[C@@H](C)CO8)[C@@H](C)[C@@H]7[C@@]6(C)CC[C@@H]54)C3)OC(CO)C(O)C2O)C(O)C(O)C1O (some centres undefined) | 2.8 µM (inactive)

Bench note: what GI50 did CCN1CCC(O)(c2ccc(C)cc2)C(C(=O)c2ccc(C)cc2)C1 (centres undefined) show?
> 42.9 µM (inactive)

Now the compound O=C(/C=C/c1ccccc1)N1CCCCC1
> 100 µM (inactive)

Now the compound CCc1n[nH]c(=O)n1/N=C/c1ccc(/C=N/n2c(CC)n[nH]c2=O)cc1
> 100 µM (inactive)

Now the compound N#Cc1c(N)nc2c3c1NC(=O)C(C(N)=O)C3c1ccccc1O2 (centres undefined)
17.3 µM (inactive)

====

Tested on: XF498
test: NCI tumour cell line growth inhibition, 48 h
Calls of active or inactive are those of the source. Cut-off read from the data, not from the text of the source: active = GI50 up to about 1.1 µM and inactive = higher.
API: response.call in 1 = active, -1 = inactive

compound | discreteLabel
COc1ccc(C2=C[C@]3(O)CCCN3C[C@@H]2c2ccc(OC)c(OC)c2)cc1 | 1

Lab note: next compound to report on.
Name the outcome recorded for Nc1nc(N)c(-c2ccccc2)c(C(=O)Nc2ccccc2)n1 in the assay.
-1

====

Tested on: SK-MEL-28
test: NCI tumour cell line growth inhibition, 48 h
Activity calls are given as the source filed them. Rule as the data show it: active = GI50 up to about 1.1 µM and inactive = higher.
# GI50 annotations

Worked set:
molecule | targetUnderTest | GI50
CC1CCC2N(C1)CC1C3(O)CC45OC6(O)C(O)CCC4(C)C6CCC5C3(O)CC(O)C1(O)C2(C)O (stereo not given) | SK-MEL-28 | > 100 µM (inactive)
COc1ccc2[nH]c3cc4c(=O)c5cc(OC)ccc5[nH]c4cc3c(=O)c2c1 | SK-MEL-28 | > 100 µM (inactive)
COc1cccc(C2C(C(=O)O)=C(CO)Oc3cc4c(cc32)OCO4)c1OC (stereo not given) | SK-MEL-28 | > 100 µM (inactive)

Bench note: what GI50 did COc1cc(/C=C/C(=O)c2ccc(NS(=O)(=O)c3cc([N+](=O)[O-])ccc3C)cc2)cc(OC)c1OC show?
8.43 µM (inactive)

Now the molecule CC1CC(C)C(=O)C(C(=O)CC2CC(=O)NC2=O)C1 (stereo not given)
> 100 µM (inactive)

Now the molecule O=[N+]([O-])c1cc(Cl)cnc1Br
3.33 µM (inactive)

Now the molecule OCC(O)CNc1ccnc2cc(Cl)ccc12 (stereo not given)
> 100 µM (inactive)

Now the molecule CCOC(=O)[C@@H]1CCN2CN(c3ccc(OC)cc3)N=C(c3ccccc3)[C@@]12c1ccccc1
21.5 µM (inactive)

Now the molecule COCc1cc2c(cc1/C=C/[N+](=O)[O-])OCO2
11 µM (inactive)

Now the molecule O=[N+]([O-])c1ccccc1S(=O)(=O)c1cccc2c1NCCC2
45.6 µM (inactive)

====

Test system: NCI-H522
test: NCI tumour cell line growth inhibition, 48 h
Active and inactive are the calls of the source. Cut-off read from the data, not from the text of the source: active = GI50 up to about 1.1 µM and inactive = higher.
API: response.call in active, inactive

# example entries with known answers
molecule | targetUnderTest | discreteLabel
CCCCCn1c(=O)c2c(=O)[nH][nH]c2c2ccccc21 | NCI-H522 | inactive
CN(C)NC1=C([N+](=O)[O-])C=NN(c2ccccc2)C1 | NCI-H522 | active
COC(=O)c1ccccc1/N=C(/NC1CCCCCC1)NS(=O)(=O)c1ccc(C)cc1 | NCI-H522 | inactive
O=[N+]([O-])c1ccccc1C1SCc2nc3ccccc3n21 (stereo not given) | NCI-H522 | inactive
O=C1Oc2ccccc2C(=O)/C1=C\Nc1nc(-c2ccc(O)c(O)c2)cs1 | NCI-H522 | inactive

Name the outcome recorded for Oc1ccc(NCn2c(=S)sc3ccccc32)cc1 in the assay.
inactive

Now the molecule O=C1/C(=C/c2ccc3c(c2)OCO3)SC2C=Nc3ccccc3N12 (stereo not given)
inactive

Now the molecule CN[C@@H](Cc1cccc2ccccc12)C(=O)N[C@@H](CC(C)C)B(O)O
active

Now the molecule CCOC(=O)/C(C#N)=C/c1ccc(SCc2ccco2)c([N+](=O)[O-])c1
inactive

Now the molecule O=C(OC(/C=C/c1ccccc1)P1(=O)N(Cc2ccccc2)[C@@H]2CCCC[C@H]2N1Cc1ccccc1)c1ccccc1 (stereo not given in full)
inactive

====

System: NCI-H522
test: NCI tumour cell line growth inhibition, 48 h
The source made the active and inactive calls. No stated cut-off is given here; in the data, active = GI50 up to about 1.1 µM and inactive = higher.
API: response.call in active, inactive

# example entries with known answers
molecule | discreteLabel
CC1(C)/C(=N\Nc2ccc([N+](=O)[O-])cc2[N+](=O)[O-])C2CCC1C2 (stereo unspecified) | inactive
NC1=C(NC(=O)Cc2ccccc2F)C(=O)c2ccccc2C1=O | inactive
COC1OC(C)/C(=N/O)C2OC(C)(C)OC12 (stereo unspecified) | inactive
O=C(O)[C@@H](NS(=O)(=O)c1ccc2ccccc2c1)c1ccccc1 | inactive
CCCCn1c2c(n(CCCC)c1=S)-c1c(n(CCCC)c(=S)n1CCCC)S[Se][Se]S2 | active

Name the outcome recorded for NC(CCCCCCCCCCP(=O)(O)O)C(=O)O (stereo unspecified) in the assay.
inactive
